System: MS2 coat protein
Assay: apparent KD of MS2 coat protein; designed switch direction (-1 OFF switch, 1 ON switch): -1; higher = weaker reporter binding
Conditions: input ligand: microRNA oligo, concentration not stated
readout.kind: apparent KD of MS2 coat protein (nM)
Reply with just the number (in nM).

So what does the record say about apparent KD of MS2 coat protein for CGGCUACGAUGAGGAUAUACGCACAUGAGGAUCACCCAUGUAAAUCACGGGUAAAGAUCUUCAUCGUAGAAGGCAUAAGGGCCC [Edarbelabe] (Eterna round: R96, puzzle: Exclusion NG 2) ?
20.9

Try this sequence too: GGUAGAGUGGUAGGAUAUCCGACUGAAACAGACGGAGAAGGACCACAGUCACUGGGUCCACUUAUAAUUAACAAUAAAUCUACC [pwkr exNG1 F6.2] (Eterna round: R96, puzzle: Exclusion NG 1)
120

Now the same for ACAUGAGGAUCACCCAUGUAAACAUAAUGGCUCAUGUAGAGUCAGGAUAUGCGUGGCGAACAAGCGCAGAAGGGACAAGACUGG [Deportation 25 - Jieux - Exclusion NG 3] (Eterna round: R96, puzzle: Exclusion NG 3)
19.6

Next sequence up: AGCCCGCAAGGAGGAUAUUAACAUGAGGAUCACCCAUGUAAUCACUAGAUAGCACGGGCGGUUCGUAAGAAGGUCUAGUGGAAU [Eternabot solution 24] (Eterna round: R96, puzzle: Exclusion NG 2)
22.3

###

System: K4 kissing-loop RNA reporter;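 further: bound reporter read as fluorescence of individual clusters on recovered sequencing chips by microscopy, with normalized cluster intensities fitted with a binding model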
Experiment: apparent KD of K4 kissing-loop reporter; higher = weaker reporter binding
Settings: Eterna round: R107; input ligand: FMN 200 uM
readout.kind: apparent KD of K4 kissing-loop reporter (nM)
The figure you give is taken to be in nM; do not add the unit.

Find the recorded apparent KD of K4 kissing-loop reporter belonging to AGUGAUAUAUGAGGAUAUGGGUUGGUUAAUGAGUUAGUUUUAGUGUUGUUUGGUUAGUGAUGUUAUUUAGAAGGCGUGAGUGAUG [sffdsmullin] and report it.
99.6

Another sequence to check: GUAAGAUGAGGAGGAGGAUGAAUUACUGAAGGAGCGCAUAUAAAUGCAGGUAGGUCGCGGUAAAGAAGUAUAGUGAUGUUAUAUA [#20 K4 Arginine A Same State]
452

Proceed to AAGAAGGUCAAAGACCUUCGUGCUCGUGAUACCAGUCGCGAAAGCGGCCCUUGGCAGCACGGCAGUGAUGUUGCCAAGAGCACAA [#13 K4 Theophylline A Same State]
318

Follow-up entry: UGAGAGUACCGGAUGGAGAAAUUGUAUGAUACCAGAGCAGAUUACCUCCCUUGGCAGCAUGCAUCCUGCUAGUGAUGUUGGCAAC [theeternabot_sameState_KL_Theo_A_48]
676

UGAUACCAGACUGAUACCAGCAAGUGAUGUUUGUUGAUCUAAAGCAGUCAAAGACUGCCUUGCCCUUGGCAGCAGUCUGGUAUCU [TheoBX 27 #SwitchBubble #StaticStem] ?
886

Now the sequence UGUACCGAGUUAGGAUAUGUCGUCGAAAGACGAAAUGGAGUGAUGUUCCUUAAACUGCGAAAGCAGACAGAAGGAACUUGGUACU [FmnBS 29 U11+A75]
190

###

Tested on: MS2 coat protein
Experiment: apparent KD of MS2 coat protein; higher = weaker reporter binding
Details: Eterna round: R107; input ligand: theophylline 2 mM
Assign yes (1) to entries whose apparent KD of MS2 coat protein meets or exceeds 30 nM; assign no (0) to the rest.

I'd appreciate it if you could say whether AAAUAAAUACAUGAGGAUCACCCAUGUGAAGGAGCGCCCGUUAGGGCAGGUAGGUCGCACAUGAAUAACUCCGCGCGAAAGCGCA [MAT - Exclusion Arginine A - Mod of Eli - D10] has apparent KD of MS2 coat protein at least equal to 30 nM.
yes (1)

What about ACAUGAGGAUCACCCAUGUGUGUAAAUCCUCGAGGACCGGUACGGCCGCCACUCGAACGAGUGUAAGAUGAAUGUUACAUUCAUC [SS Trp A s2] ?
yes (1)

Next sequence: CUCAUCCACGCGGCCGCCACUAUAUUGUGGUGUGAAUGUGUCGUAAUACAUGAGGAUCACCCAUGUAGGACCGGGCGUGGAUGAG [#08 Exclusion Tryptophan B]
yes (1)

# iterate: CUCCUGGGAGCGGCCGCCACUGGAGGCCUCGCGCGACAUGAGGAUCACCCAUGUUGGCCCGGCCUCAGGACCGGGUUCGCGCGAG [Same State - Tryptophan B Attempt #3]
no (0)

Now the same for ACGCCCGCCUCACAUGAGGAUCACCCAUGUCGAGGACCGGUACGGCCGCCACUCGUCGUCGGUAAUACGGGCGUUGAAUAAUAUA [Atedon]
no (0)

Try the sequence UCGCUCUGGGUGAGUUCCGGAGAUGUGGAAGGAGCGCUCGAAAGAGCAGGUAGGUCGCCAACGGACAUGAGGAUCACCCAUGUAC [Same State - Arginine A (Freestyle 21)]
yes (1)

Hey, just so you know, these numbers are from the supplement of paper PMC9170038.
